biological target: Beta-2 adrenergic receptor (Homo sapiens, UniProt P07550); experiment: Agonist activity at beta2-adrenoceptor endogenously expressed in human BEAS-2B cells assessed as cAMP accumulation by homogeneous radioimmunoassay; assay type: functional, cell-based
Sequence (P07550 whole entry): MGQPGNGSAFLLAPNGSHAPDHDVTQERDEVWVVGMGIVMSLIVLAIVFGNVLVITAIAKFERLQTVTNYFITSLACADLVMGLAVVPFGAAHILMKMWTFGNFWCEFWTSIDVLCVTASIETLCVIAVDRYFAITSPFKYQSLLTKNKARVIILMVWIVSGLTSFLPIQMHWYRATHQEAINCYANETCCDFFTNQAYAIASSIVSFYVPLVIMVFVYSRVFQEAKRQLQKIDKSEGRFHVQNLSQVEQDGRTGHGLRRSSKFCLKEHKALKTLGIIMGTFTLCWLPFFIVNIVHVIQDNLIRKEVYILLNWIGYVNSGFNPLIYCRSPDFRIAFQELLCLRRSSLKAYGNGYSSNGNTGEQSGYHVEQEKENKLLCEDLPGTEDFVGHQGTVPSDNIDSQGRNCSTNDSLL
pEC50: −log10 of the molar value.
endpoint: pEC50

                                   molecule  endpoint  test_value
0  O=CNc1cc([C@@H](O)CNCCc2ccc(NC[C@H](O)c3ccccc3)cc2)ccc1O [MILVETEROL]     pEC50        9.30
1  OCc1cc([C@@H](O)CNCCc2ccc(NC[C@@H](O)c3ccccc3)cc2)ccc1O (mixture of isomers)     pEC50        8.40
2  OCc1cc([C@@H](O)CNCCc2ccc(NC[C@H](O)c3ccccc3)cc2)ccc1O     pEC50        8.90
3  O=c1ccc2c([C@@H](O)CNCCc3ccc(NC[C@H](O)c4ccccc4)cc3)ccc(O)c2[nH]1     pEC50        8.90

====

molecular target: Beta-2 adrenergic receptor (Homo sapiens); assay: Agonist activity at recombinant human beta2-adrenoceptor expressed in whole cells assessed as cAMP accumulation by homogeneous radioimmunoassay; format: functional, cell-based
pEC50: −log10 of the molar value.
pEC50 of 9 or higher: label 1. Under 9: label 0.

In [3]: df
Out[3]:
                                   compound  class_assignment
0  Cc1ccc(C(O)CNc2ccc(CCNCC(O)c3ccc(O)c(CO)c3)cc2)cc1 (stereo not drawn)           label 0
1  OCc1cc(C(O)CNCCc2ccc(NCC(O)c3ccc(-c4ccccc4)cc3)cc2)ccc1O (stereo not drawn)           label 0
2  OCc1cc([C@@H](O)CNCCc2ccc(NC[C@@H](O)c3ccccc3)cc2)ccc1O (mixture of isomers)           label 1
3  OCc1cc(C(O)CNCCc2ccc(NCC(O)c3ccccc3)cc2)ccc1O (stereo not drawn)           label 1
4  OCc1cc(C(O)CNC2Cc3ccc(NCC(O)c4ccccc4)cc3C2)ccc1O (stereo not drawn)           label 0
5  OCc1cc(C(O)CNCCc2ccc(OCC(O)c3ccccc3)cc2)ccc1O (stereo not drawn)           label 1
6  O=c1ccc2c([C@@H](O)CNCCc3ccc(NC[C@H](O)c4ccccc4)cc3)ccc(O)c2[nH]1           label 1
7  Nc1c(Cl)cc([C@@H](O)CNCCc2ccc(NC[C@H](O)c3ccccc3)cc2)cc1Cl           label 1
